Catalogue of substances with associated % Inhibition at 1 μM at Melanocortin Receptor 1
Target Or Test System: MC1-R (Mus musculus, UniProt Q01727)
Construct: membranes prepared from hMC3-R, hMC4-R, hMC5-R, and B-16 mouse melanoma cells (containing MC1-R); endogenous in cells; host or cells: B-16 mouse melanoma cells (membranes)
Sequence (Q01727 whole entry): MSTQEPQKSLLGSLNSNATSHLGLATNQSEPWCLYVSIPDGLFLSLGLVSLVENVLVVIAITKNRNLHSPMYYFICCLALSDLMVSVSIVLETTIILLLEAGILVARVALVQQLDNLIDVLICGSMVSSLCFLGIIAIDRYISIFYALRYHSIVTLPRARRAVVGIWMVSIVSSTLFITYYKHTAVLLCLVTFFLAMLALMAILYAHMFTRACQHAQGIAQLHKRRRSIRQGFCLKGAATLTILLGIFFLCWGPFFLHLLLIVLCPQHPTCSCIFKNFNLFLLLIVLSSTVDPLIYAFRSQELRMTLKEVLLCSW
Method Description: competitive inhibition binding assay, 125I-NDP-alpha-MSH, B-16 mouse melanoma cell membranes
Measurement Parameters: 1 μM test peptide; 0.4 nM 125I-NDP-alpha-MSH; B-16 mouse melanoma cell membranes
Square brackets hold non-standard residues; d marks the D form. Ends that are not written are not given here. Nle = CCCC[C@H](N)C(=O)O
Kindly provide the numeric value in % only, without the unit symbol.

IN: Any idea what % Inhibition at 1 μM at Melanocortin Receptor 1 was measured for Ac-Ser-Tyr-Ser-Nle-Glu-Cys-His-Phe-Arg-Trp-Gly-Lys-Pro-Val-NH2 (Ac-SYS[Nle]ECHFRWGKPV-NH2; not fully specified (bridges); printed as Ac-Ser-Tyr-Ser-Nle-Glu-Cys-His-Phe-Arg-Trp-Gly-Lys-Pro-Val-NH2; numbers in words are those of the source; also: oxorhenium(V) N3S1 chelate (Re(V)=O)) [1-9] ?
OUT: 74

IN: Any idea what % Inhibition at 1 μM at Melanocortin Receptor 1 was measured for Tyr-Val-Nle-Gly-His-D-Phe-Arg-Trp-Asp-Arg-Phe-Cys-NH2 (FRWDRFC; Tyr-Val-Nle-Gly-His N-term; D-residue; amide; printed: Phe-Arg-Trp-Asp-Arg-Phe-Cys-) [3-1] ?
OUT: 95

IN: Any idea what % Inhibition at 1 μM at Melanocortin Receptor 1 was measured for Ac-Ser-Tyr-Ser-Nle-Glu-His-Phe-Arg-Trp-Cys-Gly-Lys-Pro-Val-NH2 (Ac-SYS[Nle]EHFRWCGKPV-NH2; not fully specified (bridges); printed as Ac-Ser-Tyr-Ser-Nle-Glu-His-Phe-Arg-Trp-Cys-Gly-Lys-Pro-Val-NH2; numbers in words are those of the source; also: oxorhenium(V) N3S1 chelate (Re(V)=O)) [1-5] ?
OUT: 57

Others:
IN: Any idea what % Inhibition at 1 μM at Melanocortin Receptor 1 was measured for Tyr-Val-Nle-Gly-His-Cys-D-Phe-Arg-Trp-Asp-Arg-Phe-NH2 [3-8] (YV[Nle]GHC[dF]RWDRF-NH2; numbers in words are those of the source; also: oxorhenium(V) N3S1 chelate complex (Re=O)) ?
OUT: 86

----------
Target Or Test System: hMC5-R (Homo sapiens)
Construct: expressed in transfected cells
Sequence (P33032 whole entry): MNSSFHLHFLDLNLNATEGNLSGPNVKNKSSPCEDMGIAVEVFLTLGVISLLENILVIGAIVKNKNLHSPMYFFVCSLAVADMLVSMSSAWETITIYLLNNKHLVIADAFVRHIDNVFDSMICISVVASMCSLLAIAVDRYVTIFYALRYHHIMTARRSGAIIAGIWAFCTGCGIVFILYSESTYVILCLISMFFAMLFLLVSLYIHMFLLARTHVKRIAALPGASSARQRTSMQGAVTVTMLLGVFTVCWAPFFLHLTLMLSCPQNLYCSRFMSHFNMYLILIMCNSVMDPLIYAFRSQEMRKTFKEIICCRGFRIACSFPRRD
Method Description: competitive inhibition binding assay, 125I-NDP-alpha-MSH, hMC5-R membranes
Measurement Parameters: 1 μM test peptide; 0.4 nM 125I-NDP-alpha-MSH; hMC5-R membranes
Observable: % Inhibition at 1 μM at Melanocortin Receptor 5
Please report the result as a number followed by the unit.

IN: Any idea what % Inhibition at 1 μM at Melanocortin Receptor 5 was measured for Ac-Ser-Tyr-Ser-Nle-Glu-His-Phe-Arg-Trp-Gly-D-Cys-Lys-Pro-Val-NH2 (chain 1 EHFRWG; chain 2 CKPV; not fully specified; Ac-Ser-Tyr-Ser-Nle N-term; D-residue; amide; printed: Glu-His-Phe-Arg-Trp-Gly-; printed: Cys-Lys-Pro-Val-) [2-4] ?
OUT: 21%
